Target: T1, Clostridium difficile toxin A (TcdA) (Clostridium difficile, UniProt P16154 1-2710)
T1 construct: mature; also called full-length TcdA
T1 sequence (P16154 whole entry): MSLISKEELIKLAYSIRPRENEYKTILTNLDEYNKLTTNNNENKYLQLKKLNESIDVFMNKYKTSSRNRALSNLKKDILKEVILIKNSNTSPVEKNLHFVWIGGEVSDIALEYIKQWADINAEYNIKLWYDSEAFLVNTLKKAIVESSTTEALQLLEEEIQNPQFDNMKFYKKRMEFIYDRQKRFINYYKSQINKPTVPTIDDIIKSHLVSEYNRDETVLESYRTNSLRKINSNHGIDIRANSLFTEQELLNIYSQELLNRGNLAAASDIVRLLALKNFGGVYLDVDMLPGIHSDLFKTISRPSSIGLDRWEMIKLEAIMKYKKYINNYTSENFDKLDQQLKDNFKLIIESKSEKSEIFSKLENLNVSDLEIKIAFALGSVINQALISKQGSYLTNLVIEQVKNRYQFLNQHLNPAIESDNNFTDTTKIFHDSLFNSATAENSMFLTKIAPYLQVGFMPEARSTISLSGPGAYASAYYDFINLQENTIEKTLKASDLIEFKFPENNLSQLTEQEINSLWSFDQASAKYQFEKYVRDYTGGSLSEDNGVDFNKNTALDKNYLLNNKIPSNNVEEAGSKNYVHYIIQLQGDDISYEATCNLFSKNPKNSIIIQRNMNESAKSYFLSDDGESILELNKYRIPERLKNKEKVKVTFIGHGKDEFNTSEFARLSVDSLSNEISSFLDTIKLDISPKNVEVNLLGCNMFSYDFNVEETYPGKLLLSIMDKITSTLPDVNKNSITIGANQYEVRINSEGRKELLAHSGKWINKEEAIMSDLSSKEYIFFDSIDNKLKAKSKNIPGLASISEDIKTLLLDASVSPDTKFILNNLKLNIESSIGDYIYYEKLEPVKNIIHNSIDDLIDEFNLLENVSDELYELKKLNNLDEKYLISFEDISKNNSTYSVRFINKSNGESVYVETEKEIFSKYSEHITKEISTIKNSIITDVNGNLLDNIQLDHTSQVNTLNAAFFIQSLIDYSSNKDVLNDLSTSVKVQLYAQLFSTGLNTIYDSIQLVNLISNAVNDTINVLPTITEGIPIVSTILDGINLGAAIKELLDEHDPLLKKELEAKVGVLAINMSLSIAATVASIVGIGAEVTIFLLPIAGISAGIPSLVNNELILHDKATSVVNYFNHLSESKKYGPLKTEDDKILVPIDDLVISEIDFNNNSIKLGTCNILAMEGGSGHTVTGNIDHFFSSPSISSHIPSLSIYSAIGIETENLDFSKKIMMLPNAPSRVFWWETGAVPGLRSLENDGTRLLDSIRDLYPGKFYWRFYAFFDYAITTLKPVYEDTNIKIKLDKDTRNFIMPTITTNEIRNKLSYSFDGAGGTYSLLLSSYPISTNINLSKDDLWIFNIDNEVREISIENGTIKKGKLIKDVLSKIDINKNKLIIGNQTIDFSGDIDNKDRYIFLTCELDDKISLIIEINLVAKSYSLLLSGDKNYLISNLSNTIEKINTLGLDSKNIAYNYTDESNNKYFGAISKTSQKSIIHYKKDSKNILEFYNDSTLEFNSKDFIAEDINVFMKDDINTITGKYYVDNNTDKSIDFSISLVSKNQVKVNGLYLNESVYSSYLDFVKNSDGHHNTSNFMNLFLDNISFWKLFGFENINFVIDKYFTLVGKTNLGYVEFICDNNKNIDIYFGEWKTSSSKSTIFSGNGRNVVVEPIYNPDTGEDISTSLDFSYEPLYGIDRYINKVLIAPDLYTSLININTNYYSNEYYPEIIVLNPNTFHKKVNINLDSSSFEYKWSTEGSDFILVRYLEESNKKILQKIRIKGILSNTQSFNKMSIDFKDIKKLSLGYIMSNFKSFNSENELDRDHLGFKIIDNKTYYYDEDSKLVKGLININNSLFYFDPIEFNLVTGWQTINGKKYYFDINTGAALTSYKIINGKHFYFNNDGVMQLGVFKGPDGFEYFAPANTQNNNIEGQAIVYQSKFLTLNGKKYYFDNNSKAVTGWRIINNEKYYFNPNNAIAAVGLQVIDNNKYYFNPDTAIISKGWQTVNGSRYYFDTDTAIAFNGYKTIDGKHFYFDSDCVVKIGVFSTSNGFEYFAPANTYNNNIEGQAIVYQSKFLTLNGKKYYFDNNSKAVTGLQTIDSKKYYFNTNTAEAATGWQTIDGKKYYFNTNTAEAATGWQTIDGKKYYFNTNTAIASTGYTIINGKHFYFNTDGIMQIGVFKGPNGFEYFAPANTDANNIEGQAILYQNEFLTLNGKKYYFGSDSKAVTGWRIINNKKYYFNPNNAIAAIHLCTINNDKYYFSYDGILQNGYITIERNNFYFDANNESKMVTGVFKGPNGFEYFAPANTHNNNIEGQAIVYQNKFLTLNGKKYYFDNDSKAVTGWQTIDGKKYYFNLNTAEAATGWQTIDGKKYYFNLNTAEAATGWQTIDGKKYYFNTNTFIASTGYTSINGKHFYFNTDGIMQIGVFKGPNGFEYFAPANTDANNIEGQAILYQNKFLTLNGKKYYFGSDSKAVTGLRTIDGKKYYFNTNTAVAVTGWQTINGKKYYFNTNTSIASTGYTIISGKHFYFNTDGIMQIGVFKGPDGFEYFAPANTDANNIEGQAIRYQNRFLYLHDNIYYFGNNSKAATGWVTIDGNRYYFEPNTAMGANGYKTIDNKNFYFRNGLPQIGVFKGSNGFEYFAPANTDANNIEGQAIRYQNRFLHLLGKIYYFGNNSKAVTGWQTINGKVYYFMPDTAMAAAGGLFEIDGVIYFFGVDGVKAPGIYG
Assay: SPR (Biacore 3000), VHH over immobilized TcdA; ratio of parent KD to mutant KD
Experimental: Before surface plasmon resonance (SPR) binding experiments, IMAC-purified VHHs were subjected to de-salting and further purification by size-exclusion chromatography (SEC). […] Monomeric VHH fractions were collected and analyzed for binding to TcdA using a Biacore 3000 SPR instrument (GE Healthcare). […] Reference-subtracted sensorgrams were analyzed with BIAevaluation software (GE Healthcare) and fit to a 1:1 binding model. […]
metricName: KD^WT/KD
Please give only the number in your answer, with no unit.

Specify reported KD^WT/KD for the binder shown: A26.8 VHH mutant Q106L (VHH, not shown: small tags and cut ends) VHH: QVKLEESGGGLVQAGGSLRLSCAASERTFSRYPVAWFRQAPGAEREFVAVISSTGTSTYYADSVKGRFTISRDNAKVTVYLQMNNLKREDTAVYFCAVNSQRTRLLDPNEYDYWGQGTQVTVSS
0.03

Specify reported KD^WT/KD for the binder shown: A26.8-T56R, T103K (VHH, not shown: small tags and cut ends) VHH: QVKLEESGGGLVQAGGSLRLSCAASERTFSRYPVAWFRQAPGAEREFVAVISSTGRSTYYADSVKGRFTISRDNAKVTVYLQMNNLKREDTAVYFCAVNSQRKRLQDPNEYDYWGQGTQVTVSS
5.4

Specify reported KD^WT/KD for the binder shown: A26.8-T56R, Q101K, T103M (VHH, not shown: small tags and cut ends) VHH: QVKLEESGGGLVQAGGSLRLSCAASERTFSRYPVAWFRQAPGAEREFVAVISSTGRSTYYADSVKGRFTISRDNAKVTVYLQMNNLKREDTAVYFCAVNSKRMRLQDPNEYDYWGQGTQVTVSS
6.5

Specify reported KD^WT/KD for the binder shown: A26.8 VHH mutant T54Y (VHH, not shown: small tags and cut ends) VHH: QVKLEESGGGLVQAGGSLRLSCAASERTFSRYPVAWFRQAPGAEREFVAVISSYGTSTYYADSVKGRFTISRDNAKVTVYLQMNNLKREDTAVYFCAVNSQRTRLQDPNEYDYWGQGTQVTVSS
0.5

Specify reported KD^WT/KD for the binder shown: A26.8 VHH mutant Q106F (VHH, not shown: small tags and cut ends) VHH: QVKLEESGGGLVQAGGSLRLSCAASERTFSRYPVAWFRQAPGAEREFVAVISSTGTSTYYADSVKGRFTISRDNAKVTVYLQMNNLKREDTAVYFCAVNSQRTRLFDPNEYDYWGQGTQVTVSS
0.004

Specify reported KD^WT/KD for the binder shown: A26.8-Q101K,T103R (VHH, not shown: small tags and cut ends) VHH: QVKLEESGGGLVQAGGSLRLSCAASERTFSRYPVAWFRQAPGAEREFVAVISSTGTSTYYADSVKGRFTISRDNAKVTVYLQMNNLKREDTAVYFCAVNSKRRRLQDPNEYDYWGQGTQVTVSS
4.5

Specify reported KD^WT/KD for the binder shown: A26.8-Q101K,T103K (VHH, not shown: small tags and cut ends) VHH: QVKLEESGGGLVQAGGSLRLSCAASERTFSRYPVAWFRQAPGAEREFVAVISSTGTSTYYADSVKGRFTISRDNAKVTVYLQMNNLKREDTAVYFCAVNSKRKRLQDPNEYDYWGQGTQVTVSS
2.3

Specify reported KD^WT/KD for the binder shown: A26.8-T103W (VHH, not shown: small tags and cut ends) VHH: QVKLEESGGGLVQAGGSLRLSCAASERTFSRYPVAWFRQAPGAEREFVAVISSTGTSTYYADSVKGRFTISRDNAKVTVYLQMNNLKREDTAVYFCAVNSQRWRLQDPNEYDYWGQGTQVTVSS
1.1
